Let's look at some compounds and their measured pKi.
- subject_of_test: ENPP1 (Homo sapiens)
- assay_remarks: ENPP1 enzyme assay with AMP-pNP substrate (hydrolysis of ATP analog)
- Format: biochemical
- experimental_conditions: AMP-pNP substrate (ATP analog); Ki from IC50 by Cheng-Prusoff; read-out: ENPP1 Inhibition _AMP-pNP: Ki
pKi: −log10 of the molar value.

Record request: pKi value, item Cn1cnc2nccc(-c3ccc4c(c3)CN(S(N)(=O)=O)CC4)c21
< 6.00

# query: pKi of entry COc1cc2ncc(C#N)c(-c3ccc(CNS(N)(=O)=O)cc3)c2cc1OC
6.00 to 7.00

Consider the compound shown here: COc1cc2c(N3CCC(CCNS(N)(=O)=O)CC3)ncnc2cc1F What is its recorded pKi?
< 6.00

Return reported pKi; argument: COc1cc2ncnc(N3CCC(CCC(N)=O)CC3)c2cc1OC
< 6.00

Given the compound COc1ccc2c(N3CCc4cc(NS(N)(=O)=O)ccc43)c(C)cnc2c1 , what is its reported pKi?
6.00 to 7.00

I have this compound here, COc1ccc2c(N3CCC4(CC3)CCN(S(N)(=O)=O)C4)ncnc2c1 , and I need its recorded pKi.
> 7.00

Which pKi value is on record for COc1cc2nccc(Nc3ccc(NS(=O)(=O)C(F)(F)F)cc3)c2cc1OC ?
< 6.00

Return reported pKi; argument: COc1ccc2c(-n3cnc(CNS(N)(=O)=O)c3)ccnc2c1
< 6.00

Please report the recorded pKi for COc1ccc2c(-c3ccc(CNS(N)(=O)=O)c(F)c3)ccnc2c1 .
> 7.00

----------
- subject_of_test: ENPP1 (Homo sapiens)
- Sequence (P22413 1-925): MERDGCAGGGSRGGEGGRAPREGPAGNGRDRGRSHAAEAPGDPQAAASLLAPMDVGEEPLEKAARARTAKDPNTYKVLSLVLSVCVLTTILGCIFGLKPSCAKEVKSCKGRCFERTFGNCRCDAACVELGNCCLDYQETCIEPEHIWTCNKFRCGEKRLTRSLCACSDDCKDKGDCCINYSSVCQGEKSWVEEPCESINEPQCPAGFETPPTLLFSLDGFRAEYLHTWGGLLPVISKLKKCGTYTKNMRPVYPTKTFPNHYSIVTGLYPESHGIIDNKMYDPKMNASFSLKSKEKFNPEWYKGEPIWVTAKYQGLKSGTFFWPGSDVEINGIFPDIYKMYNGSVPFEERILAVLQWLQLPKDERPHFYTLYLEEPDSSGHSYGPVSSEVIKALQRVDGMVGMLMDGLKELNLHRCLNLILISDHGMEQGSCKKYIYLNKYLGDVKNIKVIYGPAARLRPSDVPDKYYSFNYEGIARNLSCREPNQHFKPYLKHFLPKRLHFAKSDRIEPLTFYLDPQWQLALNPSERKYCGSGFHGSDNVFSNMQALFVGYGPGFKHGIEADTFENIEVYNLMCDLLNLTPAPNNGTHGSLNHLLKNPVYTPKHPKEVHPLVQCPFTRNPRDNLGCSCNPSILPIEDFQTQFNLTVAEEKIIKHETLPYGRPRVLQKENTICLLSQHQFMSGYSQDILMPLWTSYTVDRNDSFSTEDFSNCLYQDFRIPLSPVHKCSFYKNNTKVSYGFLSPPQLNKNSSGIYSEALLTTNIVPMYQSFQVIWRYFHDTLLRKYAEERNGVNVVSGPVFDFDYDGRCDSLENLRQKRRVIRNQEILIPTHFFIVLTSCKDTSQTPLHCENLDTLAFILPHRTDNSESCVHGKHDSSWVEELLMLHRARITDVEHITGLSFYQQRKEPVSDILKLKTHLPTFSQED
- assay_remarks: ENPP1 enzyme assay with AMP-pNP substrate (hydrolysis of ATP analog)
- Format: biochemical
- experimental_conditions: AMP-pNP substrate (ATP analog); Ki from IC50 by Cheng-Prusoff; read-out: ENPP1 Inhibition _AMP-pNP: Ki
pKi: −log10 of the molar value.
Recorded pKi values for a group of compounds are listed next.

line_notation: COc1cc2nccc(NCc3ccc(NS(N)(=O)=O)cc3)c2cc1OC
result: < 6.00

line_notation: COc1ccc2c(Oc3ccc4c(c3)CCCN4S(N)(=O)=O)ccnc2c1
result: < 6.00

line_notation: COc1cc2ncnc(N3CCc4cc(NS(N)(=O)=O)ccc4C3)c2cc1OC
result: 6.00 to 7.00

line_notation: COc1ccc2c(Oc3ccc(NS(N)(=O)=O)cc3)ncnc2n1
result: 6.00 to 7.00

line_notation: COc1cc2nccc(-c3ccc(CN(C)S(N)(=O)=O)cc3)c2cc1OC
result: > 7.00

What value of measured pKi is listed for COc1ccc2c(-c3ccc(CNS(N)(=O)=O)c(OC)c3)ccnc2c1 ?
< 6.00

Look at this compound and give its reported pKi. COc1cc2nccc(N3CCC(CCNS(N)(=O)=O)CC3)c2cc1OC
6.00 to 7.00

Query (compound): COc1cc2ncc(C#N)c(-c3ccc4c(c3)CN(S(N)(=O)=O)CC4)c2cc1F ; field requested: pKi
< 6.00

If you can, please state the reported pKi value of COc1cc2c(NCc3ccc(S(N)(=O)=O)cc3)ncnc2cn1 .
< 6.00

----------
- subject_of_test: ENPP1 (Homo sapiens, UniProt P22413)
- Sequence (P22413 1-925): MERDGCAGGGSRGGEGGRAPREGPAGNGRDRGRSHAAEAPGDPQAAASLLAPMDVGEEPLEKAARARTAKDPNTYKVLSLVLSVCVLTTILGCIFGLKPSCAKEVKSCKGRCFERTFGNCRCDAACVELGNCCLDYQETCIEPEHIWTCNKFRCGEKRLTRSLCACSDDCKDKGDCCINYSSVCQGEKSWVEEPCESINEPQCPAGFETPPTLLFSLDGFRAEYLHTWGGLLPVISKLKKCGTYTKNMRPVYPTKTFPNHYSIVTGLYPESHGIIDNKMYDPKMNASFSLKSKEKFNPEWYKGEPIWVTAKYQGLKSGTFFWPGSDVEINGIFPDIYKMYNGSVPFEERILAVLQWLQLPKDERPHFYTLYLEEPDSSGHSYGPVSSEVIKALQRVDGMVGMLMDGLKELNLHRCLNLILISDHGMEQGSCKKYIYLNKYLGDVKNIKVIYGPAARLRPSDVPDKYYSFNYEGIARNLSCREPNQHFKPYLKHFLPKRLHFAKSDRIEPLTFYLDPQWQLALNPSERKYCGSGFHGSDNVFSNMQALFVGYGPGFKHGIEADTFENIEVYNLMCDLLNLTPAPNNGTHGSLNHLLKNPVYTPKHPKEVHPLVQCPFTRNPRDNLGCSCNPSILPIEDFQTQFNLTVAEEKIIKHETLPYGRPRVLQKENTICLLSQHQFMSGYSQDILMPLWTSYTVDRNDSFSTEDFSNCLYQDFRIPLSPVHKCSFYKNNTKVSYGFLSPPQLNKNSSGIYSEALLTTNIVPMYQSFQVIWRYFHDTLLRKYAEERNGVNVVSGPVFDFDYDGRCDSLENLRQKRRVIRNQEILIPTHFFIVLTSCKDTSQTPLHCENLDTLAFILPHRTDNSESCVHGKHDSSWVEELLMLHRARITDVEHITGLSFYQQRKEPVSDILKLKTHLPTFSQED
- assay_remarks: Substrate selectivity ratio, inhibition of cGAMP hydrolysis versus ATP hydrolysis
- Format: biochemical
- experimental_conditions: ratio Ki AMP-pNP / Ki cGAMP
Quick reference: Substrate Selectivity: Ki_AMP-pNP/Ki_cGAMP of the listed items.

molecule: COc1ccc2c(-c3ccc(CCNS(N)(=O)=O)cc3)ccnc2c1 [Example 403]
result: >227
--
molecule: COc1cc2nccc(Oc3ccc(NS(N)(=O)=O)cc3F)c2cc1OC [Example 201]
result: > 19.9

Query molecule follows.
Entry under review: COc1ccc2c(-c3ccc(CS(N)(=O)=O)cc3)ccnc2c1 [Example 406] . Reported Substrate Selectivity: Ki_AMP-pNP/Ki_cGAMP?
>65

----------
- subject_of_test: ENPP1 (Homo sapiens)
- assay_remarks: Indirect quantitation of 2',3'-cGAMP hydrolysis (AMP-Glo Assay kit)
- Type: biochemical
- experimental_conditions: cGAMP substrate; Ki from IC50 by Cheng-Prusoff; read-out: ENPP1 Inhibition -cGAMP: Ki
pKi: −log10 of the molar value.
property_label: pKi

Consider the following illustrative entries.
compound: COc1ccc2c(Oc3ccc(NS(N)(=O)=O)cc3C)ccnc2c1
result: > 7.00
--
compound: COc1cc2ncn(-c3ccc(CCNS(N)(=O)=O)cc3)c2cc1OC
result: 6.00 to 7.00
--
compound: COc1cc2ncc(-c3ccc(CNS(N)(=O)=O)cc3)n2cc1OC
result: > 7.00
--
compound: COc1cc2nccc(N3CCC(CCNS(N)(=O)=O)CC3)c2cn1
result: 6.00 to 7.00
--
compound: COc1ccc2c(c1)OCCC2Oc1ccc(NS(N)(=O)=O)cc1 (stereo not shown)
result: < 6.00

Could you share which pKi value was measured for COc1ccc2c(Oc3ccc(NS(N)(=O)=O)cc3Cl)ccnc2c1 ?
6.00 to 7.00

Reported pKi, compound NS(=O)(=O)NCCC1CCN(c2ccnc(Nc3cccnc3)n2)CC1 : ____
< 6.00

What does the record list as pKi for COc1cc2ncnc(N3CCN(C(=O)CN)CC3)c2cc1OC ?
< 6.00

Bench note: what pKi did COc1ccc2c(-c3ccc(CN)cc3)c(C#N)cnc2c1 show?
6.00 to 7.00

Name the recorded pKi for COc1cc2nccc(N3CCC(CN(C4CC4)S(N)(=O)=O)CC3)c2cc1OC .
> 7.00

// query pKi value for entry COc1cc2ncnc(NCc3ccc(S(=O)(=O)O)cc3)c2cc1OC
< 6.00
